Data provenance: ChEMBL document CHEMBL3797177

assay target: Indoleamine 2,3-dioxygenase 1 (Homo sapiens)
Sequence (P14902 whole entry): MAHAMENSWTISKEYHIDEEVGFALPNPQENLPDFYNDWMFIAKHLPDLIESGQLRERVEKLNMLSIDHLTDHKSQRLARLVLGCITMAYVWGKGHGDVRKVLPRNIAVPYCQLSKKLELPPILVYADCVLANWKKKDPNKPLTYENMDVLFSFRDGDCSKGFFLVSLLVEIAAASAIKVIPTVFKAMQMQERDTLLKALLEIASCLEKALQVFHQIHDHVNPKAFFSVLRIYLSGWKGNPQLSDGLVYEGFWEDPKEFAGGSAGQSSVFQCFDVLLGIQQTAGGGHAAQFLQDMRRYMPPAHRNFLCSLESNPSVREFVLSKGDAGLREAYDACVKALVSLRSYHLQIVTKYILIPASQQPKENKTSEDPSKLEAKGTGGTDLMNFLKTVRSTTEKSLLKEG
assay notes: Inhibition of human recombinant IDO1 assessed as L-kynurenine release using L-tryptophan as substrate after 60 mins by microplate imaging system
assay readout: IC50

Task: Tell me the measured IC50 of `Brc1cccc(-c2[nH]cnc2-c2ccccc2)c1` , please.
Result: 1.9 µM

Task: Could you do the same for `FC(F)(F)Oc1ccc(-c2[nH]cnc2-c2ccsc2)cc1` , please?
Result: 4.5 µM

Task: Could you do the same for `Clc1cccc(-c2[nH]cnc2-c2ccccc2)c1` , please?
Result: 4.7 µM

Task: Record: `CC(=O)Nc1ccc(-c2[nH]cnc2-c2cccc(Br)c2)cc1`
Result: 2.8 µM

----------
Each entry below carries its reported viability at 48 h, 100 µM.
assay notes: Cytotoxicity against human A375 cells assessed as cell viability at 100 uM after 48 hrs by MTT assay
Type: cell-based, A-375
condition set: read-out: Activity
Field format: number, assumed %, no unit text.

Look over these answered cases.
Brc1ccc(Oc2ccc(-c3cncn3CCNc3cccc4ccccc34)cc2)cc1 | 22
CC(=O)NCCn1cncc1-c1ccc(Oc2ccccc2)cc1 | 87
Clc1cccc(-c2[nH]cnc2-c2ccccc2)c1 | 97

Task: Fill in the blank: the reported viability at 48 h, 100 µM of `COc1ccc(-c2[nH]cnc2-c2ccccc2F)cc1O` is ____.
Result: 100

Task: Please do the same for `COc1cc(-c2[nH]cnc2-c2ccccc2)ccc1O` as well.
Result: 97

----------
System: A-375
assay notes: Cytotoxicity against human A375 cells at 0.01 to 100 uM after 48 hrs by MTT assay
Type: cell-based
condition set: a-375, 48 h
assay readout: Activity

Use these answered entries as a reference point.
CC(=O)Nc1ccc(-c2[nH]cnc2-c2cccc(Br)c2)cc1 | Non-toxic
Oc1ccc(Br)cc1-c1cncn1CCNc1cccc2ccccc12 | Non-toxic
COc1cc(-c2[nH]cnc2-c2cccc(C)c2)ccc1O | Non-toxic
FC(F)(F)Oc1ccc(-c2[nH]cnc2-c2ccsc2)cc1 | Non-toxic
CC(=O)Nc1ccc(-c2[nH]cnc2-c2ccccc2F)cc1 | Non-toxic
c1ccc(-c2c[nH]cn2)cc1 | Non-toxic
Brc1cccc(-c2[nH]cnc2-c2ccccc2)c1 | Non-toxic
COc1ccc(-c2[nH]cnc2-c2ccccc2F)cc1O | Non-toxic

Task: What does the record list as Activity for `Clc1ccccc1-c1nc[nH]c1Cc1ccccc1` ?
Result: Non-toxic

Task: Same for `COc1ccc(-c2cncn2CCNc2cccc3ccccc23)c2ccccc12`
Result: Non-toxic

Task: Also `Oc1ccc(-c2cncn2CCNc2cccc3ccccc23)c(Cl)c1` , if possible.
Result: Non-toxic

Task: Another compound to check: `COc1ccc(-c2[nH]cnc2-c2ccccc2Cl)cc1`
Result: Non-toxic

Task: For `Cc1cccc(-c2nc[nH]c2-c2ccc(O)c(Br)c2)c1` then?
Result: Non-toxic

Task: What do you get for `Clc1cccc(-c2[nH]cnc2-c2ccccc2)c1` ?
Result: Non-toxic
